Listed molecules paired with reported IC50
target: flag-tagged HIF1α (AA 786-826) / His6-tagged p300 (AA 323-423) complex (Homo sapiens); construct: His6-tagged p300 (AA 323-423); made in house; host or cells: E. coli (pETDuet vector); test: HIF1α p300 displacement assay (TR FRET, +CHAPS); assay type: binding; conditions: read-out: IC50 (nM) (HIF1α_p300 Displacement + CHAPS)
Bridge positions count the residues as written; N and C are the ends. Square brackets hold non-standard residues; d marks the D form. Peptide text beside a SMILES is read from it. R8 = C=CCCCCCC[C@@](C)(N)C(=O)O; S5 = C=CCCC[C@](C)(N)C(=O)O; Nle = CCCC[C@H](N)C(=O)O

CCCC[C@@H]1NC(=O)[C@H](CC(C)C)NC(=O)[C@H](C(C)C)NC(=O)[C@](C)(NC(=O)[C@H](CCC(=O)O)NC(=O)[C@H](CC(=O)O)NC(=O)[C@@H](NC(=O)[C@H](Cc2ccccc2)NC(C)=O)[C@@H](C)CC)CCCCCCC=CCCC[C@@](C)(C(=O)N[C@@H](CCC(=O)O)C(=O)N[C@@H](CCSC)C(=O)NCC(N)=O)NC(=O)[C@H](C(C)C)NC(=O)[C@H](CC(C)C)NC(=O)[C@H](CO)NC1=O [SP-185] (Ac-FIDE[R8]VL[Nle]SLV[S5]EMG-NH2; staple 5-12)
> 700 nM

Next molecule, please.
If you can, please state the reported IC50 value of CC[C@H](C)[C@H](NC(=O)[C@H](Cc1ccccc1)NC(C)=O)C(=O)N[C@@H](CC(=O)O)C(=O)N[C@@H](CCC(=O)O)C(=O)N[C@@H](CCC(=O)O)C(=O)N[C@H](C(=O)N[C@@H](CC(C)C)C(=O)N[C@@H](CCSC)C(=O)N[C@@]1(C)CCCC=CCCC[C@@](C)(C(=O)N[C@@H](CCSC)C(=O)N[C@@H](C)C(=O)N[C@@H](Cc2ccccc2)C(N)=O)NC(=O)[C@H]([C@@H](C)CC)NC(=O)[C@H](C(C)C)NC(=O)[C@H](CC(C)C)NC1=O)C(C)C [SP-226] (Ac-FIDEEVLM[S5]LVI[S5]MAF-NH2; staple 9-13) .
400 to 700 nM

----------
biological target: flag-tagged HIF1α (AA 786-826) / His6-tagged p300 (AA 323-423) complex (Homo sapiens, UniProt Q09472); construct: His6-tagged p300 (AA 323-423); made in house; host or cells: E. coli (pETDuet vector); experiment: HIF1α p300 displacement assay (TR FRET, +CHAPS); type: binding; conditions: read-out: IC50 (nM) (HIF1α_p300 Displacement + CHAPS)
Bridge positions count the residues as written; N and C are the ends. Square brackets hold non-standard residues; d marks the D form. Peptide text beside a SMILES is read from it. R8 = C=CCCCCCC[C@@](C)(N)C(=O)O; S5 = C=CCCC[C@](C)(N)C(=O)O
outcome_measure: IC50

Which IC50 reading was recorded for the compound CC[C@H](C)[C@H](NC(=O)[C@H](Cc1ccccc1)NC(C)=O)C(=O)N[C@@H](CC(=O)O)C(=O)N[C@@H](CCC(=O)O)C(=O)N[C@]1(C)CCCCCCC=CCCC[C@@](C)(C(=O)N[C@@H](CCC(=O)O)C(=O)N[C@@H](CCSC)C(=O)N[C@@H](C)C(=O)N[C@@H](C)C(=O)N[C@@H](C)C(N)=O)NC(=O)[C@H](C(C)C)NC(=O)[C@H](CC(C)C)NC(=O)[C@H](CO)NC(=O)[C@H](CCSC)NC(=O)[C@H](CC(C)C)NC(=O)[C@H](C(C)C)NC1=O [SP-179] (Ac-FIDE[R8]VLMSLV[S5]EMAAA-NH2; staple 5-12) ?
> 700 nM
